Test: Thermodynamic solubility of the compound in buffer at pH 7.4 by HPLC/UV detection
Format: physicochemical
Details: read-out: Therm_solubility
Property Label: solubility thermodynamic (µM)

// worked examples, solubility thermodynamic included
In [3]: df
Out[3]:
                compound_structure  value_reported
0  Fc1ccc(Oc2nccc3[nH]ccc23)c(F)c1              77
1     Fc1ccc(Oc2nccc3[nH]ccc23)cc1              24

I: COc1cc2ccnc(Oc3ccc(F)cc3)c2cc1OC
II: Fc1ccc(Oc2ncnc3[nH]ccc23)cc1
q: Could you please tell me which of these two has the higher solubility thermodynamic: I or II ? Use the label to indicate which entry you chose.
a: II

----------
Molecular target: Transient receptor potential cation channel subfamily A member 1 (Homo sapiens, UniProt O75762)
Sequence (O75762 whole entry): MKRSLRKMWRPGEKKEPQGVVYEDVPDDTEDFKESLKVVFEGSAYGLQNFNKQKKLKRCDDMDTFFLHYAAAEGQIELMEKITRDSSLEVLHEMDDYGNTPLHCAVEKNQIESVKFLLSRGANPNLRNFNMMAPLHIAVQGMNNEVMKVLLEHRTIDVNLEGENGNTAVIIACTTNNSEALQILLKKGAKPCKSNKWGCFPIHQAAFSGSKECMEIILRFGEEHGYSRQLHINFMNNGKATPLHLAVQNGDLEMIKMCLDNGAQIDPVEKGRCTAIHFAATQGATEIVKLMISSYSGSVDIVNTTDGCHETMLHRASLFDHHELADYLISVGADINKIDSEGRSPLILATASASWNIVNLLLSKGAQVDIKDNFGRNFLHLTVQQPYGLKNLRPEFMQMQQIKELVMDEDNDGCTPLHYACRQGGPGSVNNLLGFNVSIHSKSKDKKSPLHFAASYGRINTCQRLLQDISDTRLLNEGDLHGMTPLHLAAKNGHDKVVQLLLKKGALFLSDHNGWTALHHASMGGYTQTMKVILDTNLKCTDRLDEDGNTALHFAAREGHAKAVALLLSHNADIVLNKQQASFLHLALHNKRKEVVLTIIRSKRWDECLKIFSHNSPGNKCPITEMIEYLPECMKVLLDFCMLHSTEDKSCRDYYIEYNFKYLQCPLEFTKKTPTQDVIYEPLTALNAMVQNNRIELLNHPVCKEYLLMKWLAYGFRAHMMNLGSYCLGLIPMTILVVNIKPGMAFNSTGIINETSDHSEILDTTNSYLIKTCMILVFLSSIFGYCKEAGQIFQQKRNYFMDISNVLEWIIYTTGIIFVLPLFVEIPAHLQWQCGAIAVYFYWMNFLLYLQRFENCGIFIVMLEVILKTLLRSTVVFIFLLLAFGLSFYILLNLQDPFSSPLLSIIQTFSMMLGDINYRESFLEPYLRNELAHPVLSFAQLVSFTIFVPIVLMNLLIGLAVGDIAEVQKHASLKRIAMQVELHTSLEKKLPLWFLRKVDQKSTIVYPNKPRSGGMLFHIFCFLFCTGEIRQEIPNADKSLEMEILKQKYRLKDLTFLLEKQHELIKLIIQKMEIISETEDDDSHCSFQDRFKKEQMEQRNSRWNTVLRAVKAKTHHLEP
Test: Antagonist activity at human TRPA1 expressed in HEK293-TREx cells assessed as intracellular level after 48 of 72 hrs by Fluo-4 NW staining-based fluorescence analysis
Property Label: IC50 (nM)

>>> df
                compound_structure  output_unit  value_reported
0  Fc1ccc(Oc2nccc3[nH]ccc23)c(F)c1           nM             320

A: Fc1ccc(Oc2ncnc3[nH]cc(I)c23)c(F)c1
B: COc1cc2ccnc(Oc3ccc(F)cc3F)c2cc1OC
q: When the recorded IC50 values are compared, which is smaller: that of A or that of B ? Indicate your choice by writing its label.
a: B
(B: 630 nM, A: 2500 nM)

----------
Target: Cytochrome P450 1A2 (Homo sapiens, UniProt P05177)
Sequence (P05177 whole entry): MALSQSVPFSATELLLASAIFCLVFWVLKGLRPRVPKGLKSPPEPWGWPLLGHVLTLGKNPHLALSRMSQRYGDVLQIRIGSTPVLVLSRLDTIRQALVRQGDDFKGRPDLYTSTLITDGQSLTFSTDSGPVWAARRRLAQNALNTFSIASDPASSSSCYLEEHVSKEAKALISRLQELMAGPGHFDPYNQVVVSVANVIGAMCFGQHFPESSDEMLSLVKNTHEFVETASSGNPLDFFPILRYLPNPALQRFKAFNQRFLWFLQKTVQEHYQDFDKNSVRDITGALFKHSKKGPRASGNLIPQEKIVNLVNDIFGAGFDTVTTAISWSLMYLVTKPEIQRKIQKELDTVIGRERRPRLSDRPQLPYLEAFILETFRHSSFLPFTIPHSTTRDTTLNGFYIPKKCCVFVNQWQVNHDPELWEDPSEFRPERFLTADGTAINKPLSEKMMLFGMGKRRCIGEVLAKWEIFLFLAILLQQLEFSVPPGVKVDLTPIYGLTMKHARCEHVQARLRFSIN
Property Label: IC50 (nM)
Give the quantity in nM, number only.

// sample `COc1cc2ccnc(Oc3ccc(F)cc3)c2cc1OC` , its IC50 was 1900

----------
Target: Cytochrome P450 3A4 (Homo sapiens, UniProt P08684)
Sequence (P08684 whole entry): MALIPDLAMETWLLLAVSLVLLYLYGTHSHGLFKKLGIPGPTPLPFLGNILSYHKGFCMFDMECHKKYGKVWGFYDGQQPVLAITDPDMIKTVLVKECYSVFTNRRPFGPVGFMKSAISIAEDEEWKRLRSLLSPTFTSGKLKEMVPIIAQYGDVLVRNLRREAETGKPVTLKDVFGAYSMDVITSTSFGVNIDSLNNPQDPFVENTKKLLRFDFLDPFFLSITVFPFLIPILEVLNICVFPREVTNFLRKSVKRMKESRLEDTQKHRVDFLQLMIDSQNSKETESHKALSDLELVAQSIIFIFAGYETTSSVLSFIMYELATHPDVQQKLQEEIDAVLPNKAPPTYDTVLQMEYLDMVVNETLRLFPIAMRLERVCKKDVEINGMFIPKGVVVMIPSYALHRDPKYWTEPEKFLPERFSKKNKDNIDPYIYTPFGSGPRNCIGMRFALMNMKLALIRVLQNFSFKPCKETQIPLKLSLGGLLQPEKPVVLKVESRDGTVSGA
Property Label: pIC50
# pIC50: negative log10 of molar concentration; output just the value

Entry under test: `COc1cc2ccnc(Oc3ccc(F)cc3)c2cc1OC` . Its pIC50 was 5.72

----------
Target: UniProt O75762
Experiment: Antagonist activity at human TRPA1 expressed in HEK293-TREx cells assessed as intracellular level after 48 of 72 hrs by Fluo-4 NW staining-based fluorescence analysis
compounds and their reported IC50

For orientation, consider the following solved cases.
                        compound_structure  property_label  value_reported
0  O=[N+]([O-])c1ccc(Oc2ncnc3[nH]ccc23)cc1            IC50         > 32 µM
1        Cc1[nH]c2ncnc(Oc3ccc(F)cc3F)c2c1C            IC50            2 µM
2         Cc1c[nH]c2ncnc(Oc3ccc(F)cc3F)c12            IC50         0.65 µM

The compound `COc1ccc2c(Oc3ccc(F)cc3F)nccc2c1` showed IC50 equal to 1.3 µM

Note to self: IC50 recorded for `Fc1ccc(Oc2ccncn2)c(F)c1` was > 32 µM

Notebook: `Fc1ccc(Cc2ncnc3[nH]ccc23)cc1` , IC50 read as > 32 µM

----------
Assay: Chemical stability in buffer solution assessed as compound remaining at pH 1 at 70 degC after 24 hrs by HPLC/UV detection
Format: physicochemical
Conditions: read-out: Stability
Property Label: remaining at 24 h (%)

a: Fc1ccc(Oc2ncnc3[nH]ccc23)cc1
b: Fc1ccc(Oc2nccc3[nH]ccc23)c(F)c1
q: Input pair: a , b . Output: entry with lower remaining at 24 h. When you have decided, please share the label of that item.
a: a

----------
Assay: Intrinsic clearance in human liver microsomes at 1 uM in presence of NADPH
Type: ADME
Conditions: read-out: CLH
Property Label: microsomal CLint at 1 µM (µL/min/mg)

a: Fc1ccc(Oc2nccc3[nH]ccc23)c(F)c1
b: COc1cc2ccnc(Oc3ccc(F)cc3)c2cc1OC
c: Fc1ccc(Oc2ncnc3[nH]ccc23)cc1
d: Fc1ccc(Oc2nccc3[nH]ccc23)cc1
q: Sort the listed entries by microsomal CLint at 1 µM, smallest first. Write the labels in rank order as requested.
a: c, a, d, b
(c: 24 µL/min/mg, a: 45 µL/min/mg, d: 74 µL/min/mg, b: 110 µL/min/mg)

----------
Assay: Apparent permeability across apical to basolateral side in human Caco2 cells at 10 uM at pH 7.4 by Transwell assay
Format: ADME, cell-based
Conditions: Caco-2, pH 7.4
Property Label: Papp A→B at 10 µM (×10⁻⁶ cm/s)

Previously resolved entries follow.
In [3]: df
Out[3]:
             compound_structure  value_reported
0  Fc1ccc(Oc2nccc3[nH]ccc23)cc1              12
1  Fc1ccc(Oc2ncnc3[nH]ccc23)cc1              18

P: COc1cc2ccnc(Oc3ccc(F)cc3)c2cc1OC
Q: Fc1ccc(Oc2nccc3[nH]ccc23)c(F)c1
q: Lab note: check whether P or Q shows the higher recorded Papp A→B at 10 µM. Bench note: the answer is the label of the chosen record.
a: Q
(Q: 33 ×10⁻⁶ cm/s, P: 6 ×10⁻⁶ cm/s)

----------
Target: Transient receptor potential cation channel subfamily A member 1 (Rattus norvegicus, UniProt Q6RI86)
Sequence (Q6RI86 whole entry): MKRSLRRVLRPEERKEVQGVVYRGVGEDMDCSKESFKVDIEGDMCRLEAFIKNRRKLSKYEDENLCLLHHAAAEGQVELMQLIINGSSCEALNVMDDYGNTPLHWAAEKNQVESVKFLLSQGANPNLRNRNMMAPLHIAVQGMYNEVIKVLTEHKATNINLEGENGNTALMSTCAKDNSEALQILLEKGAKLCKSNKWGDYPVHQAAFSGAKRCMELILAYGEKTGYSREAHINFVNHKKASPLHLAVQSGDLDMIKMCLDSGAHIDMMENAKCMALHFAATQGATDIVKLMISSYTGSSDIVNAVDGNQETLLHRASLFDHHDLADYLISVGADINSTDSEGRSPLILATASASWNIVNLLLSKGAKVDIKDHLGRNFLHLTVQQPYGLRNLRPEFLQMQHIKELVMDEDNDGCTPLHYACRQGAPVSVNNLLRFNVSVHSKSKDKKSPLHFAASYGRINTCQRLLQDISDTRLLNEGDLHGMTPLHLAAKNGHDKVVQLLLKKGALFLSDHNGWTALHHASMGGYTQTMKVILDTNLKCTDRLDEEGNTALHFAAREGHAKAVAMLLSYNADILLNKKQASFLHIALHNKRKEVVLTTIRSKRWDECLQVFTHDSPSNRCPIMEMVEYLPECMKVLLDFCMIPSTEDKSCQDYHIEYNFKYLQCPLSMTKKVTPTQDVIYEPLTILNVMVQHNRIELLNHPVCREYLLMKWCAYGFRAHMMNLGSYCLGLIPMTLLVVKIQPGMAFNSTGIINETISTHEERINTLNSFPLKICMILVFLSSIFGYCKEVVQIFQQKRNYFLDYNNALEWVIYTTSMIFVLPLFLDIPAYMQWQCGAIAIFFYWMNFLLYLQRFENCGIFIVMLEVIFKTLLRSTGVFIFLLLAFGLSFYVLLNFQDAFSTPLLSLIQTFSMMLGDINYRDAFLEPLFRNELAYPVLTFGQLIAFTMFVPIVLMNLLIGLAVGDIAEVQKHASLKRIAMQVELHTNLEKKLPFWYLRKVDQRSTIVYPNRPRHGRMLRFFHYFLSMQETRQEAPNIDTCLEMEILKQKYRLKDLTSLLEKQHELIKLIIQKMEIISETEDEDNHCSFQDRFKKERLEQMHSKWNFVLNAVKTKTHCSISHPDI
Test: Antagonist activity at rat TRPA1 expressed in HEK293-TREx cells assessed as intracellular level after 48 of 72 hrs by Fluo-4 NW staining-based fluorescence analysis
Property Label: IC50 (µM)

The examples below pair each entry with its known result.
                 compound_structure  output_unit  value_reported
0   Fc1ccc(Oc2nccc3[nH]ccc23)c(F)c1           µM             1.7
1  COc1cc2ccnc(Oc3ccc(F)cc3)c2cc1OC           µM             1.8

P: Fc1ccc(Oc2ncnc3[nH]ccc23)cc1
Q: Fc1ccc(Oc2nccc3[nH]ccc23)cc1
q: Please compare: P and Q . Report which one has the smaller IC50 value. Which one? Tell me its label.
a: Q

----------
Assay: Chemical stability in buffer solution assessed as compound remaining at pH 7 at 70 degC after 24 hrs by HPLC/UV detection
Format: physicochemical
Settings: read-out: Stability
Property Label: remaining at 24 h (%)

>>> df
                compound_structure  value_reported
0  Fc1ccc(Oc2nccc3[nH]ccc23)c(F)c1             100
1     Fc1ccc(Oc2ncnc3[nH]ccc23)cc1             100

----------
UniProtKB P33261: recorded IC50 for assorted compounds
Sequence (P33261 whole entry): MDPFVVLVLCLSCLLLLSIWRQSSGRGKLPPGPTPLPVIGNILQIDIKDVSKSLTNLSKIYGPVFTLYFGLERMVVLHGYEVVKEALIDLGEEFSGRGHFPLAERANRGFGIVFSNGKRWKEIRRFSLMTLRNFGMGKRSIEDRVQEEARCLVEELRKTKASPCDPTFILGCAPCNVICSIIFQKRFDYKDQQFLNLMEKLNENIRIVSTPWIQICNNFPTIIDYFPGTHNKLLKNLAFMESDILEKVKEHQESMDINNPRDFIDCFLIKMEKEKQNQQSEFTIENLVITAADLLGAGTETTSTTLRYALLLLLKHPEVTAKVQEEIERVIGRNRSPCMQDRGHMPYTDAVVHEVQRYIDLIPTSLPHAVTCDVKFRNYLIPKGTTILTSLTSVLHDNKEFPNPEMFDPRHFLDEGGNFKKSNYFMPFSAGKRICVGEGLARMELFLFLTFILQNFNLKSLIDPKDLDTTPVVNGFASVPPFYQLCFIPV

                compound_structure  property_label  value_reported
0     Fc1ccc(Oc2ncnc3[nH]ccc23)cc1            IC50         > 20 µM
1  Fc1ccc(Oc2nccc3[nH]ccc23)c(F)c1            IC50         > 20 µM

--- query ---
Measured IC50 (UniProtKB P33261), entry `Fc1ccc(Oc2nccc3[nH]ccc23)cc1` : > 20 µM

----------
Molecular target: Transient receptor potential cation channel subfamily A member 1 (Homo sapiens)
Assay: Antagonist activity at human TRPA1 expressed in HEK293-TREx cells assessed as intracellular level after 48 of 72 hrs by Fluo-4 NW staining-based fluorescence analysis
Type: cell-based
# reported IC50; entries follow

>>> df
             compound_structure  value_reported
0  Fc1ccc(Nc2ncnc3[nH]ccc23)cc1         > 32 µM

Lab note: `Fc1cccc(Oc2ncnc3[nH]ccc23)c1F` gave IC50 of 2.7 µM

Value of measured IC50 for the entry `Fc1ccc(Oc2ccnc3[nH]ccc23)c(F)c1` : > 32 µM

# IC50 (compound: `Fc1ccc(Oc2ncnc3occc23)c(F)c1` ) is > 32 µM

----------
This listing pairs compounds with measured pIC50.
Biological target: Transient receptor potential cation channel subfamily A member 1 (Homo sapiens)
Experiment: Antagonist activity at human TRPA1 expressed in HEK293-TREx cells assessed as intracellular level after 48 of 72 hrs by Fluo-4 NW staining-based fluorescence analysis
pIC50: −log10 of the molar value.

Example entries and their recorded answers appear below.
              compound_structure  property_label  value_reported
0  COc1ccc(Oc2ncnc3[nH]ccc23)cc1           pIC50          < 4.49
1   Fc1cccc(Oc2ncnc3[nH]ccc23)c1           pIC50          < 4.49

// moving on: another record for pIC50
Form field, pIC50 with Transient receptor potential cation channel subfamily A member 1 (Homo sapiens), item `COc1ccc2c(Oc3ccc(F)cc3F)ncnc2c1` : 5.52
